Taken from a melting point compilation (Tetko et al.; mined from patent text by program, amines drawn as free bases though some values may be those of a salt).

Task for the reader: assign each of the following compounds its reported melting point.

Lab note: `Cc1c(SCCN2CCOCC2)ccnc1CSc1nc2ccccc2n1C(=O)N(C)C` gave melting point of 117 to 119 °C

Lab note: `O=C1NC(=S)SC1=Cc1ccc2c(c1)N(CCc1ccc(F)c(F)c1)C(=O)CO2` gave melting point of 263 to 266 °C

Lab note: `COC(=O)c1sc2cncc(Oc3ccc(Cl)cc3)c2c1N` gave melting point of 194 to 196 °C

Lab note: `COc1cn(C)cc(-c2cccc(C(F)(F)F)c2)c1=O` gave melting point of 173 to 175 °C

Lab note: `CC(C)n1nc(-c2sc(NC(=O)CNCc3cccnc3)nc2-c2ccccc2)ccc1=O` gave melting point of 156 to 158 °C

====

Task for the reader: assign each of the following compounds its reported melting point.

Lab note: `CC=Cc1cc(OC)cc2cc(-c3ccc(OC)cc3)oc12` gave melting point of 116 to 118 °C

Lab note: `O=[N+]([O-])c1cc(O)ccc1/C=C/c1ccc(O)cc1` gave melting point of 237 to 240 °C

Lab note: `CON=C(c1cc(C)no1)c1ccccc1CON=C(C)c1ccc(Cl)c(Cl)c1` gave melting point of 84 to 85 °C

Lab note: `O=C(O)c1n[nH]c2c1C=CC(c1ccccc1)(c1ccccc1)C2` gave melting point of > 260 °C

Lab note: `CC(=O)Oc1ccccc1C(=O)Nc1ccc2oc(C)nc2c1` gave melting point of 169 to 171 °C

Lab note: `CC(C)C[C@@H](C(=O)O)n1sc2ccc(F)cc2c1=O` gave melting point of 161 to 162 °C

Lab note: CCCCCCCCCCCCCCCCSC1OC(C)C(OC(C)=O)C(OC(C)=O)C1OC(C)=O (stereo not given) gave melting point of 49 to 50 °C

Lab note: `CC1(C)C(=O)NC(=O)c2c1ccc1nc(Nc3c(Cl)cccc3Cl)[nH]c21` gave melting point of 290 to 292 °C

Lab note: `O=S1(=O)NCN(CCF)c2ccc(F)cc21` gave melting point of 133 to 134 °C

Lab note: CCOC(=O)C1(CC(N)=O)C(=O)N(Cc2ccc(Br)cc2F)C(=O)c2cccn21 (stereo not given) gave melting point of 190 to 192 °C

====

Task for the reader: assign each of the following compounds its reported melting point.

Lab note: `CC(=O)Oc1ccc(-c2ccc(C(C)=O)cc2)cc1` gave melting point of 124 to 126 °C

Lab note: COc1ccc2cc(C(C)C(=O)ON3CCCCC3)ccc2c1 (stereo not given) gave melting point of 95 to 97 °C

Lab note: `C=C(C)Cc1c(O)cc(C)c(NC=O)c1C` gave melting point of 207 to 209 °C

Lab note: COc1cc(Cc2cnc(N)nc2N)c2c(c1OC)OC(C)C2 (stereo not given) gave melting point of 216 to 219 °C

Lab note: CCCCCC1CCC(c2ccc(C(=O)O)cc2)CC1 (stereo not given) gave melting point of 30 °C

Lab note: COc1cc(NC(=O)Nc2ccc(C3CCN(C(=O)Nc4ccc(OCC(O)CO)cc4Cl)CC3)cc2)cc(OC)c1 (stereo not given) gave melting point of 105 to 108 °C

Lab note: `O=C(O)CCc1ccc(NS(=O)(=O)c2ccc(Cl)cc2)cn1` gave melting point of 144 to 146 °C

Lab note: `Cc1cccc2sc(S)nc12` gave melting point of 161 to 173 °C

Lab note: `Cc1ccc(S(=O)(=O)OCc2c([N+](=O)[O-])cccc2[N+](=O)[O-])cc1` gave melting point of 98 to 99 °C

Lab note: `CCCn1nc2c(N)nc3ccccc3c2c1CCNS(C)(=O)=O` gave melting point of 187 to 188 °C
